Test system: Pseudomonas aeruginosa ATCC 27853
Experiment: Injectable formulations on mice infected with peritonitis
Type: in vivo, ICR mice
Details: 5 mg/kg via tail vein, twice a day for 3 days, n = 10
Non-standard residues stand in square brackets, D forms with d. Residues, ends and D or L forms follow the SMILES beside them.
Measured Quantity: Number of mice that died on each day after infection: day 3

{"Molecule": "CC(=O)N[C@H](CCCNC(=N)N)C(=O)N[C@H](CCCCN)C(=O)N[C@H](CC(C)C)C(=O)N[C@H](CC(C)C)C(=O)N[C@H](Cc1ccccc1)C(=O)N[C@H](CCCNC(=N)N)C(=O)N[C@H](CC(C)C)C(=O)N[C@H](CCCCN)C(=O)N[C@H](Cc1ccccc1)C(=O)N[C@H](CCCNC(=N)N)C(=O)N[C@H](CCCCN)C(N)=O [LV-2] (Ac-[dR][dK][dL][dL][dF][dR][dL][dK][dF][dR][dK]-NH2)", "Data Value": "1 Mouse"}
